Where do the numbers come from? From ChEMBL document CHEMBL4673384.

target: Histone deacetylase 3 (Homo sapiens) (UniProt O15379); test: Inhibition of HDAC3 in human HL-60 cells assessed as increase in Ac-H3 level at 20 uM incubated for 24 hrs by Western blot analysis; format: cell-based
Sequence (O15379 whole entry): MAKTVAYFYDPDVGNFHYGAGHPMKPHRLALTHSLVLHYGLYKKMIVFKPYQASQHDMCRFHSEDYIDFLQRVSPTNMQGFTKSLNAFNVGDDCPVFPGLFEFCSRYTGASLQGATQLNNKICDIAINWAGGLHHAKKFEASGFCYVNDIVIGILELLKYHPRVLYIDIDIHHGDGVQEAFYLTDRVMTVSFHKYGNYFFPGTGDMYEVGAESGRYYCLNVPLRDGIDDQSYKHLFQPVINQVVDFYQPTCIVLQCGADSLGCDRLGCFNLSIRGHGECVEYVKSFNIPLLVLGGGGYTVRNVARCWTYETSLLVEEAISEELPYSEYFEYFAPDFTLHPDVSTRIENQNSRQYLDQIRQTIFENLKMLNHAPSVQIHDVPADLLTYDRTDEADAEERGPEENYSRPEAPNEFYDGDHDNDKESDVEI
The source made the active and inactive calls. No cut-off for these calls is given here.
measured.attribute: inhibition

                               query_smiles  measured_attribute   reading
0  Nc1ccccc1NC(=O)CCCCCNC(=O)/C(Cc1ccc(O)c(Br)c1)=N/O          inhibition    Active
1         O=C(NCCO)/C(Cc1ccc(O)c(Br)c1)=N/O          inhibition  inactive
2  Nc1ccccc1NC(=O)CCCCCCNC(=O)/C(Cc1ccc(O)c(Br)c1)=N/O          inhibition    Active
3         CCCNC(=O)/C(Cc1ccc(O)c(Br)c1)=N/O          inhibition  inactive
4    O=C(O)CCNC(=O)/C(Cc1ccc(O)c(Br)c1)=N/O          inhibition  inactive

---

// values below are reported IC50
biological target: Histone deacetylase 1 (Homo sapiens, UniProt Q13547); assay: Inhibition of recombinant full length C-terminal FLAG/His-tagged human HDAC1 expressed in baculovirus infected Sf9 cells using Boc-Lys(Ac)-AMC as substrate preincubated for 15 mins followed by substrate addition and measured after 60 mins by fluorescence based assay
Sequence (Q13547 whole entry): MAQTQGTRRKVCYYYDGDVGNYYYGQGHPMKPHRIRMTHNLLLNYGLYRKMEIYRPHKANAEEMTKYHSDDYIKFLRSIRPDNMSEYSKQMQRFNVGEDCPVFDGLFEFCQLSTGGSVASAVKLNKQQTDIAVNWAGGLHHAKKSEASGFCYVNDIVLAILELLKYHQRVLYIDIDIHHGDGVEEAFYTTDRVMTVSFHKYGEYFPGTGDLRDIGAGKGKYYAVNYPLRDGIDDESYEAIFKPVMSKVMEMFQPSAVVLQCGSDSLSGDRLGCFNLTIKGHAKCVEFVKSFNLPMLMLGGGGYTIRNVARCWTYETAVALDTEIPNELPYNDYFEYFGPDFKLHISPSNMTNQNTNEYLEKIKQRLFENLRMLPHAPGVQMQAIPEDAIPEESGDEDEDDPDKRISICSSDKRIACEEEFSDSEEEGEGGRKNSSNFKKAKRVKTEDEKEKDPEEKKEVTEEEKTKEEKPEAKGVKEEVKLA
measured.attribute: IC50

>>> print(df.to_string())
                               query_smiles                                       tgt     reading
0  O=C(NCCSSCCNC(=O)/C(Cc1ccc(O)c(Br)c1)=N/O)/C(Cc1ccc(O)c(Br)c1)=N/O  Histone deacetylase 1 (Homo sapiens, UniProt Q13547)        8 nM
1  Nc1ccccc1NC(=O)CCCCNC(=O)/C(Cc1ccc(O)c(Br)c1)=N/O  Histone deacetylase 1 (Homo sapiens, UniProt Q13547)  > 10000 nM
2    O=C(O)CCNC(=O)/C(Cc1ccc(O)c(Br)c1)=N/O  Histone deacetylase 1 (Homo sapiens, UniProt Q13547)  > 10000 nM
3  Nc1ccccc1NC(=O)CCCCCNC(=O)/C(Cc1ccc(O)c(Br)c1)=N/O  Histone deacetylase 1 (Homo sapiens, UniProt Q13547)   > 1000 nM
4  Nc1ccccc1NC(=O)CCCCCCCNC(=O)/C(Cc1ccc(O)c(Br)c1)=N/O  Histone deacetylase 1 (Homo sapiens, UniProt Q13547)   > 1000 nM

---

target: Protein deacetylase HDAC6 (Homo sapiens); assay: Inhibition of recombinant full length C-terminal FLAG-tagged human HDAC6 expressed in baculovirus infected Sf9 cells using Boc-Lys(Ac)-AMC as substrate preincubated for 15 mins followed by substrate addition and measured after 60 mins by fluorescence based assay
Sequence (Q9UBN7 whole entry): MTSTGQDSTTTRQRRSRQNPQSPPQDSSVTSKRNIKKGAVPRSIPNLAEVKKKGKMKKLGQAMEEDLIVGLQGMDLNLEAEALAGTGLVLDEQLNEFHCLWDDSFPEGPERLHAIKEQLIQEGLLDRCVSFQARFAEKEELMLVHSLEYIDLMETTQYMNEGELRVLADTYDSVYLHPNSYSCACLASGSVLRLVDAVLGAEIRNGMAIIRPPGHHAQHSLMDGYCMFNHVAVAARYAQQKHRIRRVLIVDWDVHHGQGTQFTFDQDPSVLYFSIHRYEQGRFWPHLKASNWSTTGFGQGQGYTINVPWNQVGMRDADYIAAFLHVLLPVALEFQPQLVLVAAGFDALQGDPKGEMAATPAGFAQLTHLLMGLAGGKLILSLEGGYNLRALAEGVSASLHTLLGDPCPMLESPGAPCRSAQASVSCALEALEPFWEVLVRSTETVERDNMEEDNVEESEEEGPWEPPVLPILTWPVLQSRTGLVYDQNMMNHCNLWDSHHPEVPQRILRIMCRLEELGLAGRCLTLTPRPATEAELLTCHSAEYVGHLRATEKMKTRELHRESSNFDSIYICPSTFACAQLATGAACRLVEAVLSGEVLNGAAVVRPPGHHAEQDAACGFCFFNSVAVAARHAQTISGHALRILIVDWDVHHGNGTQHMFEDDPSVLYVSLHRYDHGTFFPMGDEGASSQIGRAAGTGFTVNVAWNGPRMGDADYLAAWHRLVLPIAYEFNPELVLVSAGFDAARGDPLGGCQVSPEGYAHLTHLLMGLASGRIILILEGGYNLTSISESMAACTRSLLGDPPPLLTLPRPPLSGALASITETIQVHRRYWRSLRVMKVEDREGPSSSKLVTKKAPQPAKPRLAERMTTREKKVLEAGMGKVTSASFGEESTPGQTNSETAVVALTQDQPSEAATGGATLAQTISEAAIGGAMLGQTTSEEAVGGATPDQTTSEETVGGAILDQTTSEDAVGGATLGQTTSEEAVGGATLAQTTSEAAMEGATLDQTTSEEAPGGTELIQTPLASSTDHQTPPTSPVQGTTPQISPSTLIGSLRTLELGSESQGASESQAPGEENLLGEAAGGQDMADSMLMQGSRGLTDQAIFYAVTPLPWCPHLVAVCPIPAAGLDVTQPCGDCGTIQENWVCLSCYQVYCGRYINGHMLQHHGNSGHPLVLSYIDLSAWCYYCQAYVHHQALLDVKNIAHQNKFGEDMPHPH
measured.attribute: IC50

>>> df
                               query_smiles  measured_attribute     reading
0  Nc1ccccc1NC(=O)CCNC(=O)/C(Cc1ccc(O)c(Br)c1)=N/O                IC50  > 10000 nM
1  Nc1ccccc1NC(=O)CCCCCNC(=O)/C(Cc1ccc(O)c(Br)c1)=N/O                IC50   > 1000 nM
2  Nc1ccccc1NC(=O)CCCCCCNC(=O)/C(Cc1ccc(O)c(Br)c1)=N/O                IC50   > 1000 nM

---

Parameter: pIC50. Scope: all listed entries.
target: Histone deacetylase 1 (Homo sapiens, UniProt Q13547); experiment: Inhibition of recombinant full length C-terminal FLAG/His-tagged human HDAC1 expressed in baculovirus infected Sf9 cells using Boc-Lys(Ac)-AMC as substrate preincubated for 15 mins followed by substrate addition and measured after 60 mins by fluorescence based assay
pIC50: −log10 of the molar value.
measured.attribute: pIC50

>>> df
                               query_smiles  reading
0  Nc1ccccc1NC(=O)CCCNC(=O)/C(Cc1ccc(O)c(Br)c1)=N/O   < 5.00
1        CCCCNC(=O)/C(Cc1ccc(O)c(Br)c1)=N/O   < 5.00
2  O=C(CCCCNC(=O)/C(Cc1ccc(O)c(Br)c1)=N/O)NO     6.36
3         O=C(NCCO)/C(Cc1ccc(O)c(Br)c1)=N/O   < 5.00
